experiment: amyloid nucleation score (Sup35N fusion, yeast selection) (log enrichment); library NNK1; higher = more nucleation; inactive = no reads after selection;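 also: zero at mode of non-aggregating sequences after 7 days selection at 30°C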
Entry class follows amyloid nucleation score: bottom bin: < -0.5; middle bin: ≥ -0.5 and < 0.5; top bin: ≥ 0.5

Some entries whose results are on file:
FHRVDGVDCRTMYEGV ... bottom bin
MFSTKSH ... top bin
FDSFKVRYN ... bottom bin
KEIINGCRR ... top bin
LHVEWSASMSMFCLNHRIAA ... middle bin
YKMYWISVAVLKRYNLLHQS ... middle bin
DMVYYNEIPKGRYQHPAG ... top bin

In the following, a different substance is considered.
Input: Which category does the recorded amyloid nucleation score put RVIFSGYWRAIFSLS in?
Output: middle bin

* * *

experiment: amyloid nucleation score (Sup35N fusion, yeast selection) (log enrichment); library NNK3; higher = more nucleation; inactive = no reads after selection
Property Name: amyloid nucleation score

Below, each entry is followed by its recorded amyloid nucleation score result.
IGGVAGQRGSIA ... inactive
YTLRCDFLRNTA ... inactive
FSYEMFNAMGYFPIASLCSF ... inactive
FVCFIKLRLVDSRIVTNFQR ... inactive
RAYSYPSDYWW ... -0.122

Input: // query amyloid nucleation score value for entry TDAYKLITFIFPCKYLVTVC
Output: inactive

Input: // query amyloid nucleation score value for entry IQWFRQCSFRCSNHYSSAFK
Output: 1.44

* * *

test: amyloid nucleation score (Sup35N fusion, yeast selection) (log enrichment); library NNK2; higher = more nucleation; inactive = no reads after selection
Property Name: amyloid nucleation score
Answer with a number only.

GVMIRKSARYYL ... -0.275
WWFTAIGCSVGRLGSFNR ... 2.06
FVDWVMCIVMYVRLR ... -0.87
VGTISVFIIFHASHVGILHS ... -1.65
FYFHEACPSRLHHTKSAIGK ... -0.839

Input: // query amyloid nucleation score value for entry QVCDRILTWSRLPLSISRVR
Output: 0.062

Input: // query amyloid nucleation score value for entry ISGYRWNHVSTFVGIYRVHS
Output: 0.98

Input: // query amyloid nucleation score value for entry TLRIWYCWHDSAYTSSDHII
Output: 1.45

* * *

Listed below: amyloid nucleation score values for each entry.
assay: amyloid nucleation score (Sup35N fusion, yeast selection) (log enrichment); library NNK1; higher = more nucleation; inactive = no reads after selection
Answer with a number only.

LSHGSIQMVYPELR ... -0.829
SGCGPNGIRFWVRLEVGNTT ... 0.016

Input: // query amyloid nucleation score value for entry NCYMIFVKRLPLC
Output: 0.023

Input: // query amyloid nucleation score value for entry WSKYVESVRVETVGQVFQLV
Output: -0.009

Input: // query amyloid nucleation score value for entry VVAFYL
Output: 1.91

Input: // query amyloid nucleation score value for entry RACDNMYHYRCLLRSTEHHQ
Output: -0.185

Input: // query amyloid nucleation score value for entry WSRHELWWVPCCDRMLVLGH
Output: 0.746

Input: // query amyloid nucleation score value for entry FHVHSVLISE
Output: -0.166

Input: // query amyloid nucleation score value for entry YDAIYV
Output: 0.368

Input: // query amyloid nucleation score value for entry MDKSTMVGIKCTMRVSRQMG
Output: -0.158

Input: // query amyloid nucleation score value for entry IWCFLI
Output: 0.333

Input: // query amyloid nucleation score value for entry AMQYYIHQLVVDLSGLM
Output: 6.57

Input: // query amyloid nucleation score value for entry AQDLPLVTRNCKCMRRHLWV
Output: -0.171

Input: // query amyloid nucleation score value for entry MVHKWVIFFNRTVCRLMLPV
Output: 0.589

Input: // query amyloid nucleation score value for entry LLDVLMDGRFSFVQRYCRAD
Output: 1.05

Input: // query amyloid nucleation score value for entry AKHVLGNHAIRNGSKL
Output: 0.258

Input: // query amyloid nucleation score value for entry LYNVKTGFVRQTDVG
Output: 0.106

Input: // query amyloid nucleation score value for entry PALFVCSSFKLFMPNILGNQ
Output: 6.16

Input: // query amyloid nucleation score value for entry IRCVERGVWSCTFHIQGNCF
Output: -0.84

Input: // query amyloid nucleation score value for entry DSQGFMRVISLMFVDGSLLA
Output: 0.591

Input: // query amyloid nucleation score value for entry DKAGNGQNGATGWRTMALSG
Output: 0.777

Input: // query amyloid nucleation score value for entry YWEGWGKTRFKCNGSRSRAG
Output: -1.01

Input: // query amyloid nucleation score value for entry THSRFKVCPVSMLCNAPQQR
Output: 0.626
